test: qHTS assay to identify small molecule antagonists of the progesterone receptor (PR) signaling pathway - cell viability counter screen (AID 1346798); details: PR-UAS-bla HEK293T viability, CellTiter-Glo luminescence, 16 h; series mostly up to 92.4 µM; note: nearly all actives have a fitted effect of over 50% in size; note: potency is the fitted concentration of half-maximal effect
Records with an inconclusive call do not appear. The source made the active and inactive calls. Calls come from the whole dose curve; as a rule, active = well fitted cell-killing curve with a large enough effect in the repeat runs; inconclusive = weak or mixed curves, or effect the other way; inactive = no such curve, though single readings can be large or run the other way.
endpoint label: Potency

Below, each entry is followed by its recorded Potency result.
INSERT INTO measurements (compound, reading) VALUES
  ('CNCCCCOc1ccccc1Cc1ccccc1', '6.68 µM (active)'),
  ('C[Si](C)(CCCN)O[Si](C)(C)CCCN', 'inactive'),
  ('OCc1cc(C(O)CNCCCCCCOCCCCc2ccccc2)ccc1O (configuration not stated)', 'inactive'),
  ('C/C=C/C=C/CO', 'inactive'),
  ('Cc1cc(C(=O)O)ccc1[N+](=O)[O-]', 'inactive'),
  ('CCN(CC)CCNC(=O)c1cc(Br)c(N)cc1OC', 'inactive');

Ask | Determine its reported Potency: Nc1ncn([C@H]2C[C@H](O)[C@@H](CO)O2)c(=O)n1
Reply | inactive

----------
experiment: qHTS assay to identify small molecule agonists of the RXR signaling pathway - cell viability counter screen (AID 1159529); conditions: RXR-alpha-bla HEK293T viability, CellTiter-Glo, 16 h; series mostly up to 76.8 µM; note: nearly all actives have a fitted effect of over 50% in size
Inconclusive results are not listed. Activity calls are given as the source filed them. The call rests on the fitted dose curve; in most records, active means well fitted cell-killing curve with a large enough effect in the repeat runs; inconclusive means weak or mixed curves, or effect the other way; inactive means no such curve, though single readings can be large or run the other way.
Field 'call' accepts yes (1) (active), no (0) (inactive)

Ask | Please share the test call associated with CCc1c(C(=O)NN2CCCCC2)nn(-c2ccc(Cl)cc2Cl)c1-c1ccc(Br)cc1 .
Reply | no (0)

Ask | # fetch the recorded call for Nc1cccc([N+](=O)[O-])c1 here
Reply | no (0)

Ask | // return assay outcome for CC1OC(=O)C(C)OC1=O (stereo unspecified)
Reply | no (0)

Ask | Field: outcome | Entry: CC(=O)c1ccc2c(c1)N(CCCN1CCC(CCO)CC1)c1ccccc1S2
Reply | yes (1)

Ask | Each compound tested received a call. Report the one for O=C(Nc1ccc(S(=O)(=O)N2CCOCC2)cc1)c1cc(Cl)ccc1NS(=O)(=O)c1ccc(Cl)s1 .
Reply | no (0)

Ask | Which outcome was assigned to CCCCCCCCCCCCCCOS(=O)(=O)O in this test?
Reply | yes (1)

----------
molecular target: Peroxisome proliferator-activated receptor gamma (Homo sapiens); test: qHTS assay to identify small molecule agonists of the peroxisome proliferator-activated receptor gamma (PPARg) signaling pathway (AID 743094); details: HEK293H PPARg-UAS-bla, beta-lactamase FRET ratio, 17 h; series mostly up to 57 µM; for activation: % is set by controls: 0 for no effect and ±100 for the full control effect
Records with an inconclusive call do not appear. Calls of active or inactive are those of the source. The call rests on the fitted dose curve; in most records, active means well fitted activation curve with a large enough effect in the signal ratio in the repeat runs (not every such curve was filed as active); inconclusive means weak or mixed curves, or effect the other way; inactive means no such curve, though single readings can be large or run the other way; the % refers to the signal ratio.
Return exactly one item of active, inactive

Ask | Just curious, what result did C[C@@H]1C[C@H]2O[C@@]3(O[C@@H]2C(C)(C)O)[C@H](O)[C@@]2(C)[C@@H]4CC[C@H]5C(C)(C)[C@@H](O[C@@H]6OC[C@@H](O)[C@H](O)[C@H]6O)CC[C@@]56C[C@@]46CC[C@]2(C)[C@@H]13 get here?
Reply | inactive

Ask | # fetch the recorded call for Clc1ccc(Cn2c(CN3CCCC3)nc3ccccc32)cc1 here
Reply | inactive

Ask | Assay outcome for CC1=CC[C@H](C(C)C)C=C1 : what was it?
Reply | inactive

Ask | What did the test return for C/C(=C(\CCOP(=O)(O)O)SC(=O)c1ccccc1)N(C=O)Cc1cnc(C)nc1N ?
Reply | inactive

Ask | Recorded test call requested for O=C(O)CC(=O)C(=O)O
Reply | inactive

Ask | Given COc1ccnc(CS(=O)c2nc3ccc(OC(F)F)cc3[nH]2)c1OC (stereo not drawn) , state the outcome it received in this test.
Reply | inactive

Ask | So what was the verdict on C[C@H](CCC(=O)O)[C@H]1CC[C@H]2[C@@H]3CC[C@@H]4C[C@H](O)CC[C@]4(C)[C@H]3C[C@H](O)[C@]12C in this test?
Reply | inactive

Ask | Record lookup: outcome of this test for CCO[C@H](Cc1ccc(OCCc2ccc(OS(C)(=O)=O)cc2)cc1)C(=O)O ?
Reply | active

Ask | Query: recorded result category for COC(C)(C)CCO in this test
Reply | inactive

Ask | Hi, sorry to bother you, what did the test record for COC(=O)C1=C(C)NC(COC(N)=O)=C(C(=O)OC(C)C)C1c1cccc(Cl)c1Cl (stereo not drawn) ?
Reply | active

Ask | For COC(C)OC , which call appears in the assay record?
Reply | inactive

Ask | // param item: C=C(C)C(=O)OCCO ; yields the recorded call
Reply | inactive

Ask | Recorded call for CC(C)(C)Cl ?
Reply | inactive

Ask | // outcome(item) with item = CCCCCC[C@@H](O)C/C=C\CCCCCCCC(=O)OC
Reply | inactive

Ask | For this compound, state the assay outcome: CCN(CC)CCNC(=O)c1cc(Br)c(N)cc1OC
Reply | inactive

Ask | Which outcome was assigned to NCC(=O)CCC(=O)O in this test?
Reply | inactive

Ask | Could you kindly confirm the outcome this assay logged for Cc1nn(C)c(Oc2ccccc2)c1/C=N/OCc1ccc(C(=O)OC(C)(C)C)cc1 ?
Reply | inactive

Ask | Entry CC1CCC(=O)C1=O (stereo not drawn) : call = ?
Reply | inactive

Ask | Would you mind telling me which call this test gave NCCCN1CCOCC1 ?
Reply | inactive

Ask | What is the recorded call for this compound in the test? COc1cc(Cl)c(OC)cc1N
Reply | inactive

Ask | Entry CNC(=O)CN(CCN(CCN(CC(=O)[O-])CC(=O)NC)CC(=O)[O-])CC(=O)[O-].O.[Gd+3] : call = ?
Reply | inactive

Ask | Called result for CN(C)CCCN1c2ccccc2Sc2ccccc21
Reply | inactive

Ask | Test call for this compound, please: CN1CCN(C(c2ccccc2)c2ccccc2)CC1
Reply | inactive

Ask | Would you mind telling me which call this test gave CCOC(=O)COC(=O)c1cc(Oc2ccc(C(F)(F)F)cc2Cl)ccc1[N+](=O)[O-] ?
Reply | inactive

Ask | Look up the recorded call for C=C(C)C(=O)OCCOCC in this test.
Reply | inactive

Ask | # fetch the recorded call for CC[N+](C)(CC)CCOC(=O)C(O)(c1ccccc1)C1CCCCC1 (stereo not drawn) here
Reply | inactive

Ask | Called result for O=[N+]([O-])c1cccc(S(=O)(=O)O)c1
Reply | inactive

Ask | Hi team, can someone confirm the assay call for Nc1ncn([C@H]2C[C@H](O)[C@@H](CO)O2)c(=O)n1 ?
Reply | inactive

Ask | Outcome? O=C(O)c1ccco1
Reply | inactive

Ask | GET /call?item= O=P(O)(OCc1ccccc1)OCc1ccccc1 returns the recorded outcome of this test.
Reply | inactive

Ask | # lookup: test call for CC(COCCO)OCCO (stereo not drawn)
Reply | inactive

Ask | Please let me know the test result on file for O=C(Nc1ccccc1)c1ccccc1O .
Reply | inactive

Ask | Could you kindly confirm the outcome this assay logged for NC(=O)C(c1ccccc1)(c1ccccc1)[C@@H]1CCN(CCc2ccc3c(c2)CCO3)C1 ?
Reply | inactive

Ask | Per the assay record, what outcome was assigned to COc1ccc(S(=O)(=O)N2C(=O)[C@@](c3ccccc3OC)(N3C[C@H](O)C[C@H]3C(=O)N(C)C)c3cc(Cl)ccc32)c(OC)c1 ?
Reply | inactive

Ask | // outcome(item) with item = CCCCCCCC/C=C\CCCCCCCC(=O)OCC
Reply | inactive

Ask | Per the assay record, what outcome was assigned to Cc1c(N)cccc1[N+](=O)[O-] ?
Reply | inactive

Ask | Tell me the recorded outcome of this test for CCCOC(C(=O)OC1CCN(C)CC1)(c1ccccc1)c1ccccc1 .
Reply | inactive

Ask | Which outcome was entered for the compound C[C@@H](c1ncncc1F)C(O)(Cn1cncn1)c1ccc(F)cc1F (stereo partly drawn) in this test?
Reply | inactive

Ask | Hi team, can someone confirm the assay call for CCN(CC)c1ccc2c(-c3ccccc3C(=O)O)c3ccc(=[N+](CC)CC)cc-3oc2c1 ?
Reply | inactive

Ask | Could you please tell me the result logged for S=C([S-])NCCNC(=S)[S-].[Mn+2] in this assay?
Reply | inactive

Ask | Each compound tested received a call. Report the one for C=CC1CC2C=CC1C2 (stereo not drawn) .
Reply | inactive

Ask | What did the test return for CCC(CC)Nc1ccc(C)c(C)c1 ?
Reply | inactive

Ask | Could you check what this test reported for NC(N)=NCCC[C@H](N)C(=O)O ?
Reply | inactive

Ask | Lab log entry: CCCCC(=O)OCC(=O)[C@H]1[C@H](C)C[C@H]2[C@@H]3C[C@H](F)C4=CC(=O)C=C[C@]4(C)[C@@]3(F)[C@@H](O)C[C@@]21C — outcome as called in the assay?
Reply | inactive

Ask | Called result for C/C=C/C=C/CO
Reply | inactive

Ask | Answer briefly: the call reported for O=C1OC(=O)C2C3C=CC(C3)C12 (stereo not drawn) in this assay.
Reply | inactive

Ask | Please share the test call associated with C[C@H]1C[C@H]2[C@@H]3CCC4=CC(=O)C=C[C@]4(C)[C@@]3(Cl)[C@@H](O)C[C@]2(C)[C@@]1(O)C(=O)CO .
Reply | inactive

Ask | Record request — test call for CCCCC(CC)COC(=O)COc1ccc(Cl)cc1Cl (stereo not drawn)
Reply | inactive
